Origin of measurements: patent US6440440B1

System: Debaryomyces hansenii
Test: Screening against yeasts
Assay type: cell-based
Parameters: key: 3 = complete inhibition of growth, 2 = growth partially controlled
Details: test compound concentration 500 μM
Counter-ions that a name gives are not always drawn.
Task for the reader: assign each of the following compounds its reported Test yeast (19) Debaryomyces hansenii (score).

QUERY: API: value(readout= Test yeast (19) Debaryomyces hansenii (score), system= Debaryomyces hansenii, query= Br.Br.COc1ccc(C(c2ccc(-c3ccccc3)cc2)C2CCN(C3CCNCC3)CC2)cc1 (stereo not drawn) [compound 12] )
RESULT: 3

QUERY: What do you have for Cl.Cl.c1ccc(-c2ccc(C(c3ccccc3)C3CCN(C4CCNCC4)CC3)cc2)cc1 (single isomer, unassigned) [compound 22] ?
RESULT: 3

QUERY: For Cl.Cl.Fc1ccc(-c2ccc(C(c3ccccc3)C3CCN(C4CCNCC4)CC3)cc2)cc1.O (racemic) [Co. No. 7] then?
RESULT: 3

QUERY: // next record Cl.Cl.Fc1ccc(-c2ccc(C(c3ccc(F)cc3)C3CCN(C4CCNCC4)CC3)cc2)cc1 (stereo not drawn) [compound 6]
RESULT: 3

QUERY: Next up: c1ccc(-c2ccc(C(NC3CCN(C4CCNCC4)CC3)c3ccccc3)cc2)cc1 (stereo not drawn) [compound 47]
RESULT: 3

QUERY: Same again, this time with Br.Br.c1ccc(-c2ccc(C(CCNC3CCNCC3)c3ccccc3)cc2)cc1 (stereo not drawn) [compound 50]
RESULT: 3

QUERY: Let us now turn to NCCCN1CCC(N2CCC(C(c3ccccc3)c3ccc(-c4ccccc4)cc3)CC2)CC1 (stereo not drawn) [compound 16]
RESULT: 3

QUERY: What do you get for Cl.Cl.NC1CCN(CCC(c2ccccc2)c2ccc(-c3ccccc3)cc2)CC1 (stereo not drawn) [compound 31] ?
RESULT: 3

QUERY: How about CN(C)CC1CCN(CCC(c2ccccc2)c2ccc(-c3ccccc3)cc2)CC1 (stereo not drawn) [compound 33] ?
RESULT: 3

QUERY: Then what about the compound CN(C)CCCN1CCC(C(c2ccccc2)c2ccc(-c3ccccc3)cc2)CC1.Cl.Cl (stereo not drawn) [compound 43] ?
RESULT: 3

QUERY: Try the compound CCN1CCC(N2CCC(C(c3ccccc3)c3ccc(-c4ccccc4)cc3)CC2)CC1.Cl.Cl (stereo not drawn) [compound 18]
RESULT: 3

QUERY: Try this compound next: CNCCCN(C)CCCN(C)C(c1ccccc1)c1ccc(-c2ccccc2)cc1 (racemic) [Co. No. 52, trihydrochloride]
RESULT: 3

QUERY: // query: Cl.Cl.Cl.NC1CCN(C2CCN(C(c3ccccc3)c3ccc(-c4ccccc4)cc3)CC2)CC1 (stereo not drawn) [compound 49]
RESULT: 3

QUERY: Please answer likewise for Cl.Cl.NCCCN1CCC(C(c2ccccc2)c2ccc(-c3ccccc3)cc2)CC1.O (stereo not drawn) [Co. No. 42]
RESULT: 3

QUERY: Also Cl.Cl.Oc1ccc(C(c2ccc(-c3ccccc3)cc2)C2CCN(C3CCNCC3)CC2)cc1 (stereo not drawn) [compound 13] , if possible.
RESULT: 3

QUERY: Same thing, different compound: Cl.Cl.NCCC1CCN(CCC(c2ccccc2)c2ccc(-c3ccccc3)cc2)CC1 (stereo not drawn) [compound 29]
RESULT: 3

QUERY: // same read-out, input: Cc1ccc(C(c2ccc(-c3ccc(F)cc3)cc2)C2CCN(C3CCNCC3)CC2)cc1.Cl.Cl (stereo not drawn) [compound 9]
RESULT: 3

QUERY: Please answer likewise for Cl.Cl.NCCCNCCC(c1ccccc1)c1ccc(-c2ccccc2)cc1 (stereo not drawn) [Co. No. 40]
RESULT: 3

QUERY: Follow-up entry: c1ccc(-c2ccc(C(c3ccccc3)C3CCN(C4CCNCC4)CC3)cc2)cc1 (single isomer, unassigned) [compound 23]
RESULT: 3

QUERY: Try this compound next: Br.Br.CN(CCC(c1ccccc1)c1ccc(-c2ccccc2)cc1)C1CCNCC1 (stereo not drawn) [compound 51]
RESULT: 3

QUERY: Again, but for Cl.Cl.Cl.c1ccc(-c2ccc(C(c3ccccc3)N3CCN(C4CCNCC4)CC3)cc2)cc1 (stereo not drawn) [compound 46]
RESULT: 3

QUERY: Now try NCCC1CCN(CC=C(c2ccccc2)c2ccc(-c3ccccc3)cc2)CC1.O=C(O)C(=O)O.O=C(O)C(=O)O [compound 25] .
RESULT: 3

QUERY: Param item: NCC1CCN(CC=C(c2ccccc2)c2ccc(-c3ccccc3)cc2)CC1.O=C(O)C(=O)O.O=C(O)C(=O)O [compound 26]
RESULT: 3

QUERY: How about NC1CCN(CC=C(c2ccccc2)c2ccc(-c3ccccc3)cc2)CC1.O=C(O)C(=O)O.O=C(O)C(=O)O [compound 27] ?
RESULT: 3
